src = patent US20220193186A1

- RUN_DESCRIPTION: Body weight of rats in osteomyelitis model (Example 6)
- Assay type: in vivo, Sprague Dawley rats
- MEASUREMENT_CONDITIONS: mean, time of surgery (before treatment); group DAP 60 mg/kg
MEASURED_PROPERTY: Body weight on Day 1 (g)
Response body: numeric value in g, unit text excluded.

// query Would you mind telling me what Body weight on Day 1 value was observed for CCCCCCCCCC(=O)N[C@@H](Cc1c[nH]c2ccccc12)C(=O)N[C@H](CC(N)=O)C(=O)N[C@@H](CC(=O)O)C(=O)N[C@@H]1C(=O)NCC(=O)N[C@@H](CCCN)C(=O)N[C@@H](CC(=O)O)C(=O)N[C@H](C)C(=O)N[C@@H](CC(=O)O)C(=O)NCC(=O)N[C@H](CO)C(=O)N[C@@H]([C@H](C)CC(=O)O)C(=O)N[C@@H](CC(=O)c2ccccc2N)C(=O)O[C@@H]1C [daptomycin, reference compound] ?
// result 339
